Target: T1, 人源OX40的胞外区与人Fc融合蛋白(OX40-hFc) (human, UniProt P43489 29-214)
T1 construct: extracellular domain; Coated on ELISA plates at 2 μg/mL; not shown: human Fc
T1 sequence (looked up): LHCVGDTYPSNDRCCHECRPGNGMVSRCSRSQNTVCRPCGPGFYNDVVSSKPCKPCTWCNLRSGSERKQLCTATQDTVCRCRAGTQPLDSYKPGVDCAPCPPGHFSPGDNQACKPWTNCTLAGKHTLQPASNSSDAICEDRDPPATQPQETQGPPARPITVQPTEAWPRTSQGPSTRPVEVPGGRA
Assay: ELISA on coated OX40-hFc (Fig. 1)
measure: binding result

Sample records with binding result:
INPUT: Please give the documented binding result of 抗人OX40鼠源抗体15A7 (antibody, V domains shown, Mouse hybridoma antibody purified by Protein A) VH: QVQLQQSGPGLAKPSQTLSLTCSVTGYSITSDYWNWIRKFPGNKLEYMGYISYSGSTSYNPSLKSRISITRDTSKNQYYLQLSSVTTEDTATYYCARGGYYYGSSYPYYFDYWGQGTTLTVSS VL: DIVMTQSTKFMSTTVGDRVSITCKASQNVGTAVAWYQQKPGQSPKLLIYSPSNRYTGVPDRFTGSGSGTDFTLTITNVQSEDLADYFCQQYSSYRTFGGGTKLEIK
OUTPUT: binds

INPUT: State its binding result: 抗人OX40鼠源抗体1A2 (antibody, IgG1, V domains shown, Mouse hybridoma antibody purified by Protein A; also called 1A2-mIgG1) VH: EVQLKESGPGIVQPSQSLSLTCTFSGFSLATSGVAVGWIRQPSGKGLEWLAHIWWDDVKRYNPSLQGRLTISKDTASSQVFLKISSVDTADTATYYCARMDWDGLAYWGAGTTVTVSA VL: EIVLTQSPALMAASPGEKVTITCSVSSSISSSNLHWYQQKSETSPKPWIYGTSNLATGVPVRFSGSGSGTSYSLTISSMEAEDAATYYCQQYSSYPFTFGGGTKLEIK
OUTPUT: binds

INPUT: Specify binding result for 抗人OX40鼠源抗体3F5 (antibody, V domains shown, Mouse hybridoma antibody purified by Protein A) VH: EVQLVESGGDLVRPGGSLKLSCAASGFTFGSYAMSWVRQSPEKRLEWVAEISSGGIYTYYADIVTGRFTTSRDNAKNTLYLEMSSLRSEDTAMYYCVRDFDYRFAYWGQGTLVTVSA VL: DIQMTQTTSSLSASLGDRVTISCKSSQEISGYLAWLQQKPDGTVKRLIYAASSLDVGVPSRFSGSRSGSDYSLTISNLEPEDIATYYCFQYASYPYTFGGGTKLEIK and stop.
OUTPUT: binds

INPUT: Look up binding result of 抗人OX40鼠源抗体1G4 (antibody, V domains shown, Mouse hybridoma antibody purified by Protein A) VH: RVQLVQSGPELKKPGETVKISCKASGYTFTDYSIHWVKQAPGKGLKWMGWINTETGESTYADDFKGRFVFSSEISATTAYLQINSLKNEDTSTYFCAWVPPWYFDVWGAGTTVTVSS VL: DIVMTQSTTSLSVSLGDRVTINCRTSQDITNYLNWYQQKPDGTIKLLIYYTSMLKSGVPSRFSGSGSGTDYSLTISHLEQDDIATYFCQQGNTPPLTFGAGTKLELK and report it.
OUTPUT: binds

INPUT: State its binding result for this binder: 抗人OX40鼠源抗体3C9 (antibody, V domains shown, Mouse hybridoma antibody purified by Protein A) VH: DVQLQQSGPELVKPGASVRMSCKASGYTFTSYIMHWVKQKPGQGLEWIGYINPYNGGSRYNDKFKVKATLASDKSSSTAYMELSSLTSADSAVYYCARGDYDDGAWFGYWGQGTLVTVSA VL: EIQMTQAAPSVPVTPGESVSISCKSSQSLLHSNGITYLFWYLQRPGQSPQLLIYRMSNRASGVPDRFSSSGSGTAFTLKISRVEADDVGVYYCGQNLELPVTFGAGTKVELK
OUTPUT: binds

Okay, now this binder:
INPUT: Name the recorded binding result of the binder listed here: 抗人OX40鼠源抗体3D9 (antibody, V domains shown, Mouse hybridoma antibody purified by Protein A) VH: QVQLQESGPGLVAPSQSLSITCTVSGFSLTTYGITWVRQPPGKGLEWLGVIWDDGSTNYHSALISRLSISKNNYKSQVFLTLNSLQTDDTATYYCAKLLPYYFDSWGQGTTLTVSS VL: DIVMTQSPSSLSASLGDRVTISCRASQDISNYLNWYQQKPNGTVKLLIYYTSRLLSGVPSRFSGSGSGTDYSLTISSLEQEDIATYFCQQGYTLPPTFGGGTKLEIK
OUTPUT: binds
